# key: entry, value: log10(EC50)
# System: ABCA1 protein
# method_summary: Detection of upregulation of ABCA1 protein in cells (ApoA-I binding, high content image analysis)
# Type: cell-based
# condition_details: ABCA1 protein increasing efficacy; THP-1 macrophage cells
parameter_measured: log10(EC50) (log10 of the value in nM)

compound	log10(EC50)
O=C(Nc1cnc(OCC2CC2)c(-c2ccc(Cl)cc2)c1)c1ccccc1	3.44
CCc1ccc(-c2cc(NC(=O)c3cccnn3)cnc2OCC(F)(F)F)cc1	2.43
Cc1cc(C(=O)Nc2cnc(OCC(F)(F)F)c(-c3ccc(Cl)cc3)c2)no1	3.78
O=C(Nc1cnc(OCC(F)(F)F)c(-c2ccc(Cl)cc2)c1)c1cncnc1	3.14
O=C(Nc1cnc(OCC(F)(F)F)c(-c2ccc(Cl)cc2)c1)c1ccnc(O)c1	3.00
Cc1cccnc1C(=O)Nc1cnc(OCC(F)(F)F)c(-c2ccc(Cl)cc2)c1	2.71
O=C(Nc1cnc(OCC(F)(F)F)c(-c2ccc(Cl)cc2)c1)c1ccc(O)cn1	3.52
Cc1cc(C(=O)Nc2cnc(OCC(F)(F)F)c(-c3ccc(Cl)cc3)c2)n[nH]1	2.86

---

# key: entry, value: log10 EC50
# System: ABCA1 protein
# method_summary: Detection of upregulation of ABCA1 protein in cells (ApoA-I binding, high content image analysis)
# Assay type: cell-based
# condition_details: ABCA1 protein increasing efficacy; THP-1 macrophage cells
parameter_measured: log10 EC50 (log10 of the value in nM)

compound	log10 EC50
C[C@H](Oc1ncc(NC(=O)c2cccnn2)cc1-c1ccc(Cl)cc1)C(F)(F)F [Example 42]	3.93
Cn1nccc1C(=O)Nc1cnc(OCC(F)(F)F)c(-c2ccc(Cl)cc2)c1 [Example 20]	3.81
O=C(Nc1cnc(OCC(F)(F)F)c(-c2ccc(Cl)cc2)c1)c1ccncn1 [Example 34]	3.38
CN1CCOc2cc(C(=O)Nc3cnc(OCC(F)(F)F)c(-c4ccc(Cl)cc4)c3)cnc21 [Example 72]	2.89
CO/N=C(\C)C(=O)Nc1cnc(OCC(F)(F)F)c(-c2ccc(Cl)cc2)c1 [Example 89]	3.52
Cc1cc(-c2cc(NC(=O)c3cn(C)nc3C)cnc2OCC(F)(F)F)ccc1Cl [Example 58]	3.34
O=C(Nc1cnc(OCC(F)(F)F)c(-c2ccc(Cl)cc2)c1)c1cc[nH]n1 [Example 24]	3.36
O=C(Nc1cnc(OCC(F)(F)F)c(-c2ccc(Cl)cc2)c1)c1ccno1 [Example 30]	3.59
C[C@H](Oc1ncc(NC(=O)c2cccnc2)cc1-c1ccc(Cl)cc1)C(F)(F)F [Example 43]	3.77
Cc1cc(C(=O)Nc2cnc(OCC(F)(F)F)c(-c3ccc(Cl)cc3)c2)ccn1 [Example 25]	3.42
COc1cncc(C(=O)Nc2cnc(OCC(F)(F)F)c(-c3ccc(Cl)cc3)c2)c1 [Example 77]	2.86
Cc1cc(-c2cc(NC(=O)c3cccnc3)cnc2OCC(F)(F)F)ccc1Cl [Example 39]	3.35
CN1CCOc2cc(C(=O)Nc3cnc(OCC(F)(F)F)c(-c4ccc(Cl)c(F)c4)c3)cnc21 [Example 81]	3.41
O=C(Nc1cnc(OCC(F)(F)F)c(-c2ccc(Cl)cc2)n1)c1cccnc1 [Example 49]	2.48
O=C(Nc1cnc(OCC(F)(F)F)c(-c2ccc(Cl)cc2)c1)c1cccnc1 [Example 3]	3.36
Cc1cc(-c2cc(NC(=O)c3c(F)ccnc3F)cnc2OCC(F)(F)F)ccc1Cl [Example 59]	3.59
O=C(Nc1cnc(OCC(F)(F)F)c(-c2ccc(Cl)cc2)c1)c1ccccc1 [Example 2]	3.43
Cc1ccc(-c2cc(NC(=O)c3cccnc3)cnc2OCC(F)(F)F)cc1C [Example 38]	3.46
O=C(Nc1cnc(OCC(F)(F)F)c(-c2ccc(Cl)c(F)c2)c1)c1cccnc1 [Example 44]	3.10

---

# experimental_target: human CB1 receptor (Homo sapiens, UniProt P21554)
# Construct: expressed in transfected cells; host or cells: human embryonic kidney (HEK) cells, Semliki Forest Virus system, membrane preparations
# Sequence (P21554 whole entry): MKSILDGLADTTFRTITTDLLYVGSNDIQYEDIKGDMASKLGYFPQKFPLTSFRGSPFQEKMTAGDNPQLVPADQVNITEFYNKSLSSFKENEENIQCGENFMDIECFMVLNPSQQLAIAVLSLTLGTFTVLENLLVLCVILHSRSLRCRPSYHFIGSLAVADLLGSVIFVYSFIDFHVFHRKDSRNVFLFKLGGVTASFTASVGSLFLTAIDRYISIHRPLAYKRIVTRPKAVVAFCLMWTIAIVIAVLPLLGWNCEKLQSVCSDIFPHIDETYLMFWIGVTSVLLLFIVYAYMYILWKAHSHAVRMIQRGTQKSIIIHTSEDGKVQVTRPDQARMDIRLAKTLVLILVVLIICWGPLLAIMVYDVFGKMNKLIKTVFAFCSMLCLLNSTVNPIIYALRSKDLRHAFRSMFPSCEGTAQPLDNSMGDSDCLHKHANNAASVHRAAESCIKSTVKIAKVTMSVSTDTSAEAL
# method_summary: CB1 receptor affinity ([3H]-CP-55,940 displacement, HEK cell membranes)
# Format: binding
# condition_details: displacement of radioligand [3H]-CP-55,940
# key: entry, value: inhibition at 10 µM

molecule	unit_spec	inhibition at 10 µM
Cc1cnc(C(=O)Nc2cnc(OCC(F)(F)F)c(-c3ccc(Cl)cc3)c2)s1 [Example 26]	%	37
Cc1cncc(C(=O)Nc2cnc(OCC(F)(F)F)c(-c3ccc(Cl)cc3)c2)c1 [Example 41]	%	31
O=C(Nc1cnc(OCC(F)(F)F)c(-c2ccc(Cl)cc2)c1)c1ccccc1 [Example 2]	%	33
O=C(Nc1cnc(OCC(F)(F)F)c(-c2ccc(Cl)cc2)c1)c1cccnc1 [Example 3]	%	29

---

# experimental_target: human CB2 receptor (Homo sapiens, UniProt P34972)
# Construct: expressed in transfected cells; host or cells: human embryonic kidney (HEK) cells, Semliki Forest Virus system, membrane preparations
# Sequence (P34972 whole entry): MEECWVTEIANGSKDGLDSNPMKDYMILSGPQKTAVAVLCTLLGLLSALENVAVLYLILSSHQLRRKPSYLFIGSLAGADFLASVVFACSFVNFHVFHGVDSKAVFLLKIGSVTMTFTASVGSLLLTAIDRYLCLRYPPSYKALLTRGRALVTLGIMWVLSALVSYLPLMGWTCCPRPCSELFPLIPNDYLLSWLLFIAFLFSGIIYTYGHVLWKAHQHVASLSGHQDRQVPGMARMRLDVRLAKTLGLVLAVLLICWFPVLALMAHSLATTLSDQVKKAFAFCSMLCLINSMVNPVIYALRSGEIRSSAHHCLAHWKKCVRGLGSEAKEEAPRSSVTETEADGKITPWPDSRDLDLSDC
# method_summary: CB2 receptor affinity ([3H]-CP-55,940 displacement, HEK cell membranes)
# Assay type: binding
# condition_details: displacement of radioligand [3H]-CP-55,940
parameter_measured: inhibition at 10 µM (%)

compound	experimental_target	numeric_result
Cc1cc(-c2cc(NC(=O)c3cncc(C#N)c3)cnc2OCC(F)(F)F)ccc1Cl	human CB2 receptor (Homo sapiens, UniProt P34972)	12
O=C(Nc1cnc(OCC(F)(F)F)c(-c2ccc(Cl)cc2)c1)c1ccc(O)cn1	human CB2 receptor (Homo sapiens, UniProt P34972)	-5
O=C(Nc1cnc(OCC(F)(F)F)c(-c2ccc(Cl)cc2F)c1)c1cccnc1	human CB2 receptor (Homo sapiens, UniProt P34972)	-1
Cc1cc(-c2cc(NC(=O)c3cccnc3)cnc2OCC(F)(F)F)ccc1Cl	human CB2 receptor (Homo sapiens, UniProt P34972)	16
C[C@H](Oc1ncc(NC(=O)c2cccnc2)cc1-c1ccc(Cl)cc1)C(F)(F)F	human CB2 receptor (Homo sapiens, UniProt P34972)	6
Cc1cc(-c2cc(NC(=O)c3cnc4c(c3)OCCN4C)cnc2OCC(F)(F)F)ccc1Cl	human CB2 receptor (Homo sapiens, UniProt P34972)	14
Cc1cncc(C(=O)Nc2cnc(OC3CCC3)c(-c3ccc(Cl)cc3)c2)c1	human CB2 receptor (Homo sapiens, UniProt P34972)	-5
CO/N=C(\C)C(=O)Nc1cnc(OCC(F)(F)F)c(-c2ccc(Cl)cc2)c1	human CB2 receptor (Homo sapiens, UniProt P34972)	5
Cc1cc(-c2cc(NC(=O)c3cncnc3)cnc2OCC(F)(F)F)ccc1Cl	human CB2 receptor (Homo sapiens, UniProt P34972)	6
O=C(Nc1cnc(OCC(F)(F)F)c(-c2ccc(Cl)cc2)c1)c1cnccn1	human CB2 receptor (Homo sapiens, UniProt P34972)	4
O=C(Nc1cnc(OCC(F)(F)F)c(-c2ccc(Cl)cc2)c1)c1ccncn1	human CB2 receptor (Homo sapiens, UniProt P34972)	10
O=C(Nc1cnc(OCC2CC2)c(-c2ccc(Cl)cc2)c1)c1cccnc1	human CB2 receptor (Homo sapiens, UniProt P34972)	28
CO[C@H](C)C(=O)Nc1cnc(OCC(F)(F)F)c(-c2ccc(Cl)cc2)c1	human CB2 receptor (Homo sapiens, UniProt P34972)	16
O=C(Nc1cnc(OCC(F)(F)F)c(-c2ccc(Cl)cc2F)c1)c1cccnn1	human CB2 receptor (Homo sapiens, UniProt P34972)	2
CN1CCOc2cc(C(=O)Nc3cnc(OCC(F)(F)F)c(-c4ccc(Cl)cc4)c3)cnc21	human CB2 receptor (Homo sapiens, UniProt P34972)	-7
O=C(Nc1cnc(OCC(F)(F)F)c(-c2ccc(F)c(Cl)c2)c1)c1cccnc1	human CB2 receptor (Homo sapiens, UniProt P34972)	13
Nc1ccc(-c2cc(NC(=O)c3cncc(I)c3)cnc2OCC(F)(F)F)cc1Cl	human CB2 receptor (Homo sapiens, UniProt P34972)	22
O=C(Nc1cnc(OCC(F)(F)F)c(-c2ccccc2)c1)c1cccnc1	human CB2 receptor (Homo sapiens, UniProt P34972)	-7
Cc1noc(C)c1C(=O)Nc1cnc(OCC(F)(F)F)c(-c2ccc(Cl)cc2)c1	human CB2 receptor (Homo sapiens, UniProt P34972)	7

---

# experimental_target: human CB1 receptor (Homo sapiens, UniProt P21554)
# Construct: expressed in transfected cells; host or cells: human embryonic kidney (HEK) cells, Semliki Forest Virus system, membrane preparations
# method_summary: CB1 receptor affinity ([3H]-CP-55,940 displacement, HEK cell membranes)
# Type: binding
# condition_details: displacement of radioligand [3H]-CP-55,940
Given measured inhibition at 10 µM, output satisfied if it is greater than or equal to 40% and not satisfied if not.

compound	category
CC(=O)Nc1cnc(OCC2CC2)c(-c2ccc(Cl)cc2)c1	not satisfied
Cc1ocnc1C(=O)Nc1cnc(OC2CCC2)c(-c2ccc(Cl)cc2)c1	not satisfied
O=C(Nc1cnc(OCC(F)(F)F)c(-c2ccc(Cl)cc2)c1)c1nccs1	not satisfied
O=C(Nc1cnc(OCC(F)(F)F)c(-c2ccc(Cl)cc2)c1)c1ccns1	satisfied
Cc1cc(-c2cc(NC(=O)c3cn(C)nc3C)cnc2OCC(F)(F)F)ccc1Cl	not satisfied
COCCOc1ncc(NC(=O)c2ccccc2)cc1-c1ccc(Cl)c(C)c1	not satisfied
CCCCC(=O)Nc1cnc(OCC(F)(F)F)c(-c2ccc(Cl)cc2)c1	satisfied
O=C(Nc1cnc(OCC(F)(F)F)c(-c2ccc(Cl)cc2)c1)c1ccncc1	not satisfied
